# Protocol Text: Thermodynamic solubility in FeSSIF
# Type: physicochemical
# Conditions: pH 4.9, thermodynamic from solid; fed state simulated intestinal fluid (FeSSIF), equilibrated at 25° C. for 24 hours
Result Type: solubility at 24 h (µg/mL)
Numbers only, in µg/mL.

Annotate the molecule COc1ccc(-c2c(-c3ccc(C#N)c(F)c3)nc(N3CCC(N)CC3)n(C)c2=O)cc1F.Cl [HCL 1] with its measured solubility at 24 h.
750

====

Please go through the items and note down their Solubility in FeSSiF.
# Protocol Text: Thermodynamic solubility in FeSSIF
# Type: physicochemical
# Conditions: fed state simulated intestinal fluid (FeSSIF), equilibrated at 25° C. for 24 hours
One number for each entry, in mg/mL.

Respectfully, I request Solubility in FeSSiF for each entry included below.
1. COc1ccc(-c2c(-c3ccc(C#N)c(F)c3)nc(N3CCC(N)CC3)n(C)c2=O)cc1F [MSA 1]
2. COc1ccc(-c2c(-c3ccc(C#N)c(F)c3)nc(N3CCC(N)CC3)n(C)c2=O)cc1F [SO4 1]
3. COc1ccc(-c2c(-c3ccc(C#N)c(F)c3)nc(N3CCC(N)CC3)n(C)c2=O)cc1F [BA 1]
4. COc1ccc(-c2c(-c3ccc(C#N)c(F)c3)nc(N3CCC(N)CC3)n(C)c2=O)cc1F [SUCA 1]
5. COc1ccc(-c2c(-c3ccc(C#N)c(F)c3)nc(N3CCC(N)CC3)n(C)c2=O)cc1F [PHOA 1]
6. COc1ccc(-c2c(-c3ccc(C#N)c(F)c3)nc(N3CCC(N)CC3)n(C)c2=O)cc1F [free base]
7. COc1ccc(-c2c(-c3ccc(C#N)c(F)c3)nc(N3CCC(N)CC3)n(C)c2=O)cc1F [BSA 1]

1: 1.01; 2: 0.72; 3: 0.88; 4: 0.96; 5: 0.74; 6: 0.28; 7: 0.84

Respectfully, I request Solubility in FeSSiF for each entry included below.
1. COc1ccc(-c2c(-c3ccc(C#N)c(F)c3)nc(N3CCC(N)CC3)n(C)c2=O)cc1F [pTSA 1]
2. COc1ccc(-c2c(-c3ccc(C#N)c(F)c3)nc(N3CCC(N)CC3)n(C)c2=O)cc1F [MA 1]

[0.87, 0.63]

====

# Protocol Text: Stability post-storage at 40° C./75% RH assessed by XRPD
# Assay type: physicochemical
# Conditions: form change assessed by XRPD
Result Type: Stability post-storage at 40° C./75% RH

Study these solved cases before continuing.
COc1ccc(-c2c(-c3ccc(C#N)c(F)c3)nc(N3CCC(N)CC3)n(C)c2=O)cc1F [MA 3] = Pattern change
COc1ccc(-c2c(-c3ccc(C#N)c(F)c3)nc(N3CCC(N)CC3)n(C)c2=O)cc1F [SUCA 2] = Pattern change
COc1ccc(-c2c(-c3ccc(C#N)c(F)c3)nc(N3CCC(N)CC3)n(C)c2=O)cc1F [PHOA 2] = Pattern change
COc1ccc(-c2c(-c3ccc(C#N)c(F)c3)nc(N3CCC(N)CC3)n(C)c2=O)cc1F [pTSA 1] = No form change

Could you now look at the following compound, please?
Annotate the compound COc1ccc(-c2c(-c3ccc(C#N)c(F)c3)nc(N3CCC(N)CC3)n(C)c2=O)cc1F [SO4 1] with its measured Stability post-storage at 40° C./75% RH.
No form change
